# assay_target: α4β2 Receptor (alpha4beta2 nAChR) (Rattus norvegicus, UniProt P09483+P12390)
# Construct: protein concentration of the rat brain membranes contained in the pellet; tissue Pel-Freeze Biologicals; host or cells: whole male Sprague-Dawley rat brain membranes
# Sequence (P09483 31-630): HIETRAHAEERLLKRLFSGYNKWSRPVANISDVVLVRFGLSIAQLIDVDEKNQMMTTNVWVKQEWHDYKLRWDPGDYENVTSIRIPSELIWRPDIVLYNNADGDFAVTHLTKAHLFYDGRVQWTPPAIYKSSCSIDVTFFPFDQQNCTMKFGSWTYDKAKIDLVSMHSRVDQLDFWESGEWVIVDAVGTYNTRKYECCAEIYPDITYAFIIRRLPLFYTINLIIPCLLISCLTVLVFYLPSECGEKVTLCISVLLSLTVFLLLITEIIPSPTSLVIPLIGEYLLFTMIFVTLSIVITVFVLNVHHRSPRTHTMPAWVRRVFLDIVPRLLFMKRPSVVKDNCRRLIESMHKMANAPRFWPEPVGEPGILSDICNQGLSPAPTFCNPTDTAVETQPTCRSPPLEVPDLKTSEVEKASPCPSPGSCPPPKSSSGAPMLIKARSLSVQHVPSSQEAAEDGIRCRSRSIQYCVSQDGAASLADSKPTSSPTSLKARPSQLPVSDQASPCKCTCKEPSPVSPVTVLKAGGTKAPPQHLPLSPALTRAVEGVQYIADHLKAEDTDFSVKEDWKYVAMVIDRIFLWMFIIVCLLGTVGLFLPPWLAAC
# Sequence (P12390 25-500): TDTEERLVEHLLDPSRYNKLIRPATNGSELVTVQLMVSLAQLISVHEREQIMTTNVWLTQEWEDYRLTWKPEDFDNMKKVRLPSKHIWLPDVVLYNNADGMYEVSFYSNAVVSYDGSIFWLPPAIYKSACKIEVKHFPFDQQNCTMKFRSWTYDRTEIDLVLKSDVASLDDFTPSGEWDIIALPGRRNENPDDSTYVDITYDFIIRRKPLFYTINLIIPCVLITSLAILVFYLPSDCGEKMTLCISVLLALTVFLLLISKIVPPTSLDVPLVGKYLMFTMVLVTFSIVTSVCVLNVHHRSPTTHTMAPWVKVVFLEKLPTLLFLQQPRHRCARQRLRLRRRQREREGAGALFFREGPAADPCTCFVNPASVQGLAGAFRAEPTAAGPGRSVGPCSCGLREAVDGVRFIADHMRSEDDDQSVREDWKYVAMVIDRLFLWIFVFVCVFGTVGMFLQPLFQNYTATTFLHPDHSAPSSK
# method: Displacement binding of 3H-cytisine to rat brain membranes (α4β2 nAChR)
# run_conditions: rat brain membranes, 3H-cytisine 1 nM, 4° C. four hours; read-out: α4β2 Receptor Rat Ki
measured_parameter: pKi
# log scale: pKi equals minus log10 of the concentration in mol/L

Req: Entry COc1ccc(/C=C2/C(c3cccnc3)=NCC[C@@H]2C)c(OC)c1 [Compound 5] has what pKi?
Resp: 6.72

Req: What measured pKi goes with COc1ccc(/C=C2/C(c3cccnc3)=N[C@H](C)C[C@@H]2C)c(OC)c1 [Compound 11] ?
Resp: 6.21

Req: // returns reported pKi for input COc1ccc(C=C2C(c3cccnc3)=NCC[C@H]2C)c(OC)c1 [Compound 4, 3-(DMXB)-4(R)-methyl-anabaseine]
Resp: 6.82

Req: Reported pKi for COc1ccc(/C=C2\CC[C@H](C)N=C2c2cccnc2)c(OC)c1 [Compound 8] : what is it?
Resp: 6.23
